Biological target: Syk (Homo sapiens (Human), UniProt P43405)
Property label: IC50 (nM)

Past entries and their recorded results:
| Smiles string | Unit tag | Value measured |
| --- | --- | --- |
| COc1cc(Nc2cc(Oc3ccc(NC(=O)Nc4cc(C(C)(C)C)cc(NS(C)(=O)=O)c4OC)c4ccccc34)ccn2)ccc1C(=O)NC(CO)(CO)CO | nM | 82 |
| COc1cc(Nc2cc(Oc3ccc(NC(=O)Nc4cc(C(C)(C)C)cc(C(N)=O)c4OC)c4ccccc34)ccn2)ccc1C(=O)NCCN1CCOCC1 | nM | 277 |
| COc1c(NC(=O)Nc2ccc(Oc3ccnc(Nc4ccc(C(=O)O)c(N(C)C)c4)c3)c3ccccc23)cc(C(C)(C)C)cc1NS(C)(=O)=O | nM | 124 |

(I) COc1cc(Nc2cc(Oc3ccc(NC(=O)Nc4cc(C(C)(C)C)cc(NS(C)(=O)=O)c4OC)c4ccccc34)ccn2)ccc1S(=O)(=O)N(C)CCCN1CCOCC1
(II) COc1cc(Nc2cc(Oc3ccc(NC(=O)Nc4cc(C(C)(C)C)cc(NS(C)(=O)=O)c4OC)c4ccccc34)ccn2)ccc1C(=O)NCCCN1CCOCC1
(III) COc1c(NC(=O)Nc2ccc(Oc3ccnc(Nc4ccc(C(=O)NCCN5CCOCC5)c(N(C)C)c4)c3)c3ccccc23)cc(C(C)(C)C)cc1NS(C)(=O)=O
Prompt: Hello, I need these entries ordered by IC50, highest reading first. Thanks! // rank by listing labels in the order requested
Response: I, II, III
